melting point for assorted compounds

| compound | melting point |
| --- | --- |
| Clc1cc2cc[nH]c2c2cccnc12 | 248 to 250 °C |
| COC(=O)c1ccc(CC(C)(C)NCC(O)c2cc3ccccc3o2)cc1 (configuration not stated) | 127 to 129 °C |
| CC(C)(C)OC(=O)CNC(=O)C(=O)c1cn(Cc2ccccc2)c2ccc(-c3ccc(OC(F)(F)F)cc3)cc12 | 167 to 168 °C |
| CCN(CC)C(=O)COc1cc(-c2ccccc2)nc2ccccc12 | 97 °C |
| CCOc1ccc(C=CC(=O)c2c(OC)cc(OC)cc2OP(=O)(O)O)cc1 | 63 to 64 °C |
| O=C(NC(=O)c1ccc2ncccc2c1)NC1CCN(Cc2ccc3cc(F)ccc3c2)CC1 | 200 to 201 °C |
| CCCc1nc(C(O)C(C)(C)C)c(C(=O)O)n1Cc1ccc(-c2ccccc2C(=O)OC(C)(C)C)cc1 (configuration not stated) | 207 °C |
| CCCn1c(=O)c(C#N)c(Cl)c2ccccc21 | 203 to 205 °C |
| CCN(CC)CCOCCC1CCN(C(=O)N2c3ccccc3C(=O)Nc3cccnc32)CC1 | 119 to 120 °C |
| CN(C(=O)OC(C)(C)C)c1cc(Oc2ccccc2N2CCCC2)ccc1N | 136 to 138 °C |
| Nc1ccc(OCCCCCOc2ccc(N)cc2)cc1 | 78 to 79 °C |
| O=c1ccc2cc(-c3cccnc3)ccc2[nH]1 | 217 to 218 °C |
| CCC1c2cccn2-c2cccc(C)c2N1S(=O)(=O)c1ccc(O)cc1 (configuration not stated) | 165 to 167 °C |
| CC1C(=O)Oc2cc(N3CCOCC3)c(Br)cc21 (configuration not stated) | 99 to 100 °C |
| N#Cc1sc(Cl)nc1Cl | 34 to 35 °C |
| CCCc1nc2ccc(Cl)nc2c(=O)[nH]1 | 264 to 266 °C |
| CC(=O)Nc1cccc(C2=NNC(=O)C3CC23)c1 (configuration not stated) | 200 to 202 °C |
| CC(C)(C)OC(=O)Nc1cn(-c2cccnc2)nc1Br | 109 to 112 °C |
| CCSc1nc2c(N)nc(-c3ccncc3)nc2[nH]1 | 168 to 170 °C |
| CC(C)(C)OC(=O)Nc1ccc(NC(=O)C(=O)N2CCC(Cc3ccccc3)CC2)cc1 | 177 to 179 °C |
| COc1cc(OC)c2cc(-c3ccc(C#N)cc3)oc2c1 | 220 to 221 °C |
| Fc1ccccc1COC1COC(c2ccco2)OC1 (configuration not stated) | 50.5 to 52 °C |
